Entries and their measured MIC follow.
Test system: Klebsiella pneumoniae 1082 E (β-lactamase carrier)
Test: serial dilution test in the microtiter system, minimum inhibitory concentration
Format: cell-based
Conditions: Klebs. pneum. 1082 E, 37° C., 18 to 20 hours
quantity: MIC

>  <compound>
Cc1nnc(SCC2=C(C(=O)O)N3C(=O)[C@@H](NC(=O)Cn4cnnn4)[C@H]3SC2)s1 [Cefazoline, reference compound]

>  <reported-value>
> 128 µg/mL

$$$$
>  <compound>
Cn1nnnc1SCC1=C(C(=O)O)N2C(=O)[C@@H](NC(=O)C(NC(=O)Nc3cnc(Nc4ccc(S(N)(=O)=O)cc4)nc3O)c3csc(N)n3)[C@H]2SC1 (some centres unmarked)

>  <reported-value>
64 µg/mL

$$$$
>  <compound>
Cn1nnnc1SCC1=C(C(=O)O)N2C(=O)[C@@H](NC(=O)C(NC(=O)Nc3cnc(NCc4ccc(O)cc4)nc3O)c3csc(N)n3)[C@H]2SC1 (some centres unmarked)

>  <reported-value>
16 µg/mL

$$$$
>  <compound>
CC(=O)OCC1=C(C(=O)O)N2C(=O)[C@@H](NC(=O)C(NC(=O)Nc3cnc(Nc4ccc(S(N)(=O)=O)cc4)nc3O)c3csc(N)n3)[C@H]2SC1 (some centres unmarked)

>  <reported-value>
32 µg/mL

$$$$
>  <compound>
Cn1nnnc1SCC1=C(C(=O)O)N2C(=O)[C@@H](NC(=O)C(NC(=O)Nc3cnc(NC4CCC(O)CC4)nc3O)c3csc(N)n3)[C@H]2SC1 (some centres unmarked)

>  <reported-value>
32 µg/mL

$$$$
>  <compound>
CCCNc1ncc(NC(=O)NC(C(=O)N[C@@H]2C(=O)N3C(C(=O)O)=C(CSc4nnnn4C)CS[C@H]23)c2csc(N)n2)c(O)n1 (some centres unmarked)

>  <reported-value>
16 µg/mL

$$$$
>  <compound>
Cn1nnnc1SCC1=C(C(=O)O)N2C(=O)[C@@H](NC(=O)C(NC(=O)Nc3cnc(NCCCO)nc3O)c3csc(N)n3)[C@H]2SC1 (some centres unmarked)

>  <reported-value>
32 µg/mL

$$$$
>  <compound>
Cn1nnnc1SCC1=C(C(=O)O)N2C(=O)[C@@H](NC(=O)C(NC(=O)Nc3cnc(C4CC4)nc3O)c3csc(N)n3)[C@H]2SC1 (some centres unmarked)

>  <reported-value>
32 µg/mL

$$$$
